Just for reference, PubChem BioAssay is where these values come from.

Reported activity remaining by item:
System: Aerobactin synthetase IucA (Klebsiella pneumoniae hvKP1)
TEST_PROTOCOL: Biochemical IucA enzyme inhibition primary screen of the Spectrum library (AID 1346200);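 also: 100% = wells without compound and 0% = wells lacking enzyme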
TEST_CONDITIONS: malachite green pyrophosphate, A620, at 8 µM, stronger effect = lower value
MEASURED_ENDPOINT: activity remaining (%)

CCCCN(CCCC)CCCOC(=O)c1ccc(N)cc1 ... 90
O=C(O)c1ccccc1Nc1ccccc1 ... 106
CCCCS(=N)(=O)CCC(N)C(=O)O (configuration not stated) ... 102
CN(C)CCOC(C)(c1ccccc1)c1ccccn1 (configuration not stated) ... 104
CCCCCC(C)N (configuration not stated) ... 111
CC1=NN(c2ccccc2)C(=O)C1 ... 120
O=C(O)CCC(=O)OC[C@@H](NC(=O)C(Cl)Cl)[C@H](O)c1ccc([N+](=O)[O-])cc1 ... 110
Cc1onc(-c2ccccc2Cl)c1C(=O)N[C@@H]1C(=O)N2[C@@H]1SC(C)(C)[C@@H]2C(=O)O ... 96.2
COc1c(O)cc2oc3cc(O)c(CC=C(C)C)c(O)c3c(=O)c2c1CC=C(C)C ... 93
COc1ccc2c3c([nH]c2c1)C(C)=NCC3 ... 124
COc1ccc(-c2coc3cc(OC)cc(OC)c3c2=O)cc1 ... 103
COc1cc(-c2coc3cc(OCc4ccccc4)c(OC)c(O)c3c2=O)cc(O)c1OC ... 122

---

System: Aerobactin synthetase IucA (Klebsiella pneumoniae, hypervirulent)
TEST_PROTOCOL: IucA enzyme inhibition, biochemical, LOPAC library, absorbance readout (AID 1346212);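 also: 100% = no compound wells and 0% = no enzyme wells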
TEST_CONDITIONS: IucA enzyme assay, absorbance (OD) readout; stronger effect = lower value; concentration not given here
// reported remaining activity per item
MEASURED_ENDPOINT: remaining activity (%)

C[C@H]1C[C@H]2[C@@H]3CCC4=CC(=O)C=C[C@]4(C)[C@@]3(F)[C@@H](O)C[C@]2(C)[C@@]1(O)C(=O)CO ... 114
N=c1ccn2c(n1)O[C@H]1[C@H](O)[C@@H](CO)O[C@H]12 ... 95.9
N#C/C(=C\c1ccc(O)c(O)c1)C(=O)NCCc1ccccc1 ... 102
CN1CC[C@@]2(C)c3cc(O)ccc3N(C)C12 (stereo partly specified) ... 92.9
CN(C)C(=O)Oc1ccc[n+](C)c1 ... 91.3
CC[C@H]1CN2CCc3cc(OC)c(OC)cc3[C@@H]2C[C@@H]1C[C@H]1NCCc2cc(OC)c(OC)cc21 ... 123
CN=c1nc(-c2ccccc2)n(-c2ccccc2)s1 ... 109
CCCCN1CCC(COC(=O)c2cc(Cl)c(N)c3c2OCCO3)CC1 ... 109
O=c1[nH]oc2c1CCNC2 ... 100
NC(=O)CN1CC(O)CC1=O (stereo unspecified) ... 115
OCCN(CCO)c1nc(N2CCCCC2)c2nc(N(CCO)CCO)nc(N3CCCCC3)c2n1 ... 92.9
CN1CC(=O)NC1=NC(=O)Nc1cccc(Cl)c1 ... 98.9
O=C1CCC(c2ccc(-n3ccnc3)cc2)=NN1 ... 111
CN(C)C(=O)C(CCN1CCC(O)(c2ccc(Cl)cc2)CC1)(c1ccccc1)c1ccccc1 ... 114
CCS(=O)(=O)Nc1cccc(C(=C2CCCCC2)c2cnc[nH]2)c1 ... 108
NC(=S)NCCCC(N)C(=O)O (stereo unspecified) ... 102
C[C@@H](NC(=O)/C(C#N)=C/c1ccc(O)c(O)c1)c1ccccc1 ... 97.8
NCCc1c[nH]c2ccc(C(N)=O)cc12 ... 90
O=C(O)c1nn(Cc2ccc(Cl)cc2Cl)c2ccccc12 ... 110
CN1CCCC1c1cccnc1 (stereo unspecified) ... 115
O=C(O)Cc1cnc[nH]1 ... 121
c1ccc(-c2ccccn2)nc1 ... 75.1
C[C@@H](N)Cc1cnc[nH]1 ... 105
CSC(N)=NCCC[C@H](N)C(=O)O ... 123
c1ccc2c(c1)CCC[C@H]2Nc1nc2ccccc2[nH]1 ... 109
COc1cc(NS(C)(=O)=O)ccc1Nc1c2ccccc2nc2ccccc12 ... 108

---

Tested on: Aerobactin synthetase IucA (Klebsiella pneumoniae hvKP1)
TEST_PROTOCOL: Biochemical IucA enzyme inhibition primary screen of the Spectrum library (AID 1346200);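 also: 100% = wells without compound and 0% = wells lacking enzyme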
TEST_CONDITIONS: malachite green pyrophosphate, A620, at 8 µM, stronger effect = lower value
# activity remaining per record follows
MEASURED_ENDPOINT: activity remaining (%)

C[C@]12CCC3C(CC[C@H]4C[C@H](OS(=O)(=O)O)CC[C@]34C)C1CCC2=O (stereo partly specified) ... 102
CNC[C@@H](O)c1ccc(O)c(O)c1 ... 115
CCN(CC)C(=S)SSC(=S)N(CC)CC ... 90.4
C=C1CCC2[C@](C)(CO)[C@H](O)CC[C@@]2(C)[C@@H]1C/C=C1/C(=O)OC[C@H]1O (stereo partly specified) ... 108
COC(=O)C1=CO[C@@H](C)[C@@H]2CN3CC[C@]4(C(=O)Nc5ccccc54)C3CC12 (stereo partly specified) ... 121
COC(=O)C1[C@H]2C[C@H]3c4[nH]c5ccccc5c4CCN3C[C@@H]2CC[C@@H]1O (stereo partly specified) ... 112
CC(CN1c2ccccc2Sc2ccccc21)N(C)C (stereo unspecified) ... 78.1
COc1c2ccoc2nc2c(OC)c(OCC(O)C(C)(C)O)ccc12 (stereo unspecified) ... 98
CC(=O)CCCCn1c(=O)c2c(ncn2C)n(C)c1=O ... 82.4
CC(=O)Oc1cc2c(c(C)c1OC(C)=O)CC1OC13[C@@]2(C)CC[C@@]1(C)C2C[C@](C)(C(=O)O)CC[C@]2(C)CC[C@]31C (stereo partly specified) ... 101
COC1=CC(=O)C[C@@H](C)[C@]12Oc1c(Cl)c(OC)cc(OC)c1C2=O ... 115
CCCCC1(COC(=O)CCC(=O)O)C(=O)N(c2ccccc2)N(c2ccccc2)C1=O ... 110
CC1=C(/C=C/C(C)=C/C=C/C(C)=C/C=C/C=C(C)/C=C/C=C(C)/C=C/C2=C(C)CCCC2(C)C)C(C)(C)CCC1 ... 123
COc1c2ccccc2nc2occc12 ... 115
CC(C)c1ccc2c(c1)CCC1[C@](C)(CN)CCC[C@]21C (stereo partly specified) ... 111
CC(=O)Nc1ccc(OC(=O)c2ccccc2O)cc1 ... 101
COc1ccc(-c2cc(=O)c3c(OC(C)=O)cc(OC(C)=O)cc3o2)cc1 ... 108
COc1cccc([C@]2(O)CCCC[C@H]2CN(C)C)c1 ... 98.7
C[C@@H]1CC2C3CCC4=CC(=O)C=C[C@]4(C)[C@@]3(F)[C@@H](O)C[C@]2(C)[C@@]1(O)C(=O)CO (stereo partly specified) ... 119
COC(=O)[C@]1(C)CC[C@]2(C)CC[C@]3(C)C4=CCc5c(cc(O)c(O)c5C)[C@]4(C)CC[C@@]3(C)C2C1 (stereo partly specified) ... 106
Cc1onc(-c2ccccc2)c1-c1ccc(S(N)(=O)=O)cc1 ... 103

---

TEST_PROTOCOL: sensitizers of A549 cells to miR-34 induction, primary screen, imaging, A549 dox-inducible miR-34, nuclei and caspase counts (AID 1347080)
TEST_CONDITIONS: A549 miR-34 inducible, Hoechst nuclei count, 48 h; measured here: total cells without miR-34 induction
cell count of 9000 or higher: Satisfied. Under 9000: Not satisfied.

c1ccc(C2CNCc3ccccc32)cc1 (stereo unspecified) ... Not satisfied
CC(C)(C)c1cc(C=C(C#N)C#N)cc(Br)c1O ... Not satisfied
C[C@]12CCC(=O)CC1CCC1C2CC[C@@]2(C)C1CC[C@]2(C)O (stereo partly specified) ... Satisfied
O=C(O)CC[N+](=O)[O-] ... Satisfied

---

Each record here notes measured inhibition.
TEST_PROTOCOL: human astrocyte viability loss, single and combined drugs, cytotoxicity control for chromothriptic childhood tumor combination screen, cell-based, BGB or cisplatin IC20 combos (AID 1671460);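 also: cells exposed to compounds for 96 hours before viability readout; 0% = vehicle and 100% = killing control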
TEST_CONDITIONS: Human astrocytes, drug combinations, measured here: combo with cisplatin IC20, at 0.5 µM, stronger effect = higher value
MEASURED_ENDPOINT: inhibition (%)

O=P(O)(NCCCl)NCCCl ... -6.44
O=C(O)CCCc1ccc(N(CCCl)CCCl)cc1 ... -9.75
Cn1c(COP(=O)(NCCBr)NCCBr)cnc1[N+](=O)[O-] ... 9.13
CCC1(c2ccccc2)C(=O)NC(=O)NC1=O ... 13.6
Cn1c(CCCC(=O)O)nc2cc(N(CCCl)CCCl)ccc21 ... -20

---

TEST_PROTOCOL: sensitizers of A549 cells to miR-34 induction, primary screen, imaging, A549 dox-inducible miR-34, nuclei and caspase counts (AID 1347080)
TEST_CONDITIONS: A549 miR-34 inducible, Hoechst nuclei count, 48 h; measured here: relative caspase fold change +Dox/-Dox
Peptide text beside a SMILES is read from it. * marks the point of attachment. CH2Cl = ClC*
MEASURED_ENDPOINT: fold change

C[C@H](N)C(=O)N[C@@H](C)C(=O)N[C@@H](Cc1ccccc1)C(=O)CCl (H-Ala-Ala-Phe-CH2Cl) ... 1.41
COc1cccc2c1cc([N+](=O)[O-])c1c(C(=O)O)cc3c(c12)OCO3 ... 1.14
CCOC(=O)C1(c2ccccc2)CCN(CCC(C#N)(c2ccccc2)c2ccccc2)CC1 ... 1.81
C[C@H]1C2Cc3ccc(O)cc3C1(C)CCN2CC1CC1 (stereo not given in full) ... 1.14
CCN(C(C)=O)c1cccc(-c2ccnc3c(C#N)cnn23)c1 ... 1.13
